Molecular target: Alpha-2B adrenergic receptor (Homo sapiens, UniProt P18089)
Sequence (P18089 whole entry): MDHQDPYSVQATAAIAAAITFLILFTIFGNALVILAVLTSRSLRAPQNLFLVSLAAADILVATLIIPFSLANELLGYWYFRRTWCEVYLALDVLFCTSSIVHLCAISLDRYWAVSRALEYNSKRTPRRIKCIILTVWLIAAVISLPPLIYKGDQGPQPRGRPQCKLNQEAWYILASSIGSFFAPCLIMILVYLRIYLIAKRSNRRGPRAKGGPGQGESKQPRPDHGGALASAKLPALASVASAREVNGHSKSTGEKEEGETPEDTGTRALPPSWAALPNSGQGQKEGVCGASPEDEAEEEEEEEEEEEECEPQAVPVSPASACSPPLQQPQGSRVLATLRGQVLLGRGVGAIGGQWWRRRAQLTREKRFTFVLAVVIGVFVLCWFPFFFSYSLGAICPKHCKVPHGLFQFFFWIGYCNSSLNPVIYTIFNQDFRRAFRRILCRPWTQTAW
Assay: Binding affinity for human Alpha-2B adrenergic receptor from cultured Y-1 cells using [3H]rauwolscine
Assay type: cell-based
attribute.measured: Ki (nM)
The response must be a number in nM with no trailing unit.

Bench note, Alpha-2B adrenergic receptor (Homo sapiens, UniProt P18089): entry Brc1c(NC2=N[C@@H]3CCCC[C@@H]3N2)ccc2nccnc12 , its Ki = 18200

The reported Alpha-2B adrenergic receptor (Homo sapiens, UniProt P18089) Ki of Brc1c(NC2=NCCS2)ccc2nccnc12 is 17400

// Ki (Alpha-2B adrenergic receptor (Homo sapiens, UniProt P18089)) for c1cnc2cc(NC3=NCCN3)ccc2n1 = 219

Measured Ki for this entry Cc1cnc2c(Br)c(NC3=NCCN3)ccc2n1 on Alpha-2B adrenergic receptor (Homo sapiens, UniProt P18089): 324

Summary: Brc1c(NC2=NCCO2)ccc2nccnc12 , Alpha-2B adrenergic receptor (Homo sapiens, UniProt P18089), Ki = 85100

Alpha-2B adrenergic receptor (Homo sapiens, UniProt P18089) data for Clc1c(NC2=NCCN2)ccc2nccnc12 ; its Ki: 69.2

Bench note, Alpha-2B adrenergic receptor (Homo sapiens, UniProt P18089): entry CC1CN=C(Nc2ccc3nccnc3c2Br)N1 (stereo not drawn) , its Ki = 3240

Short answer on Alpha-2B adrenergic receptor (Homo sapiens, UniProt P18089) for Brc1c(NC2=NCCN2)ccc2c1NCCN2 , Ki: 49

###

Alpha-2C adrenergic receptor (Homo sapiens) measurements of pKi, listed per entry.
Sequence (P18825 whole entry): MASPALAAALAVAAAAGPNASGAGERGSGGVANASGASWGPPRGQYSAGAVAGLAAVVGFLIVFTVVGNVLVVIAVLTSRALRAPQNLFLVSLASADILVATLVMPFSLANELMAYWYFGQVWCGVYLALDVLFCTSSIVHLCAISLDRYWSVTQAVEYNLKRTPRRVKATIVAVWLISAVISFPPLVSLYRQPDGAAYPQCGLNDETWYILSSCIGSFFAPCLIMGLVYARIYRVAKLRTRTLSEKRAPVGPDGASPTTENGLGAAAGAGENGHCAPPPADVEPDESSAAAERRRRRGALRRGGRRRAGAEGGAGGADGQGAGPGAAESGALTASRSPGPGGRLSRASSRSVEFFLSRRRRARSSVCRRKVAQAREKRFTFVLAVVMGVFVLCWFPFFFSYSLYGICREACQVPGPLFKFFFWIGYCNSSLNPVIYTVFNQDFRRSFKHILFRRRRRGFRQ
Just so you know, pKi here is -log10 of the concentration in molar units; reply with that number alone.

Reported pKi for Brc1c(NC2=NCCN2)ccc2c1NCCN2 was 6.67

Form: compound = Ic1c(NC2=NCCN2)ccc2nccnc12 ; pKi = 6.39

Sample Brc1c(NC2=NCCS2)ccc2nccnc12 ; pKi observed: 4.55

###

target: Alpha-1D adrenergic receptor (Homo sapiens)
Sequence (P25100 whole entry): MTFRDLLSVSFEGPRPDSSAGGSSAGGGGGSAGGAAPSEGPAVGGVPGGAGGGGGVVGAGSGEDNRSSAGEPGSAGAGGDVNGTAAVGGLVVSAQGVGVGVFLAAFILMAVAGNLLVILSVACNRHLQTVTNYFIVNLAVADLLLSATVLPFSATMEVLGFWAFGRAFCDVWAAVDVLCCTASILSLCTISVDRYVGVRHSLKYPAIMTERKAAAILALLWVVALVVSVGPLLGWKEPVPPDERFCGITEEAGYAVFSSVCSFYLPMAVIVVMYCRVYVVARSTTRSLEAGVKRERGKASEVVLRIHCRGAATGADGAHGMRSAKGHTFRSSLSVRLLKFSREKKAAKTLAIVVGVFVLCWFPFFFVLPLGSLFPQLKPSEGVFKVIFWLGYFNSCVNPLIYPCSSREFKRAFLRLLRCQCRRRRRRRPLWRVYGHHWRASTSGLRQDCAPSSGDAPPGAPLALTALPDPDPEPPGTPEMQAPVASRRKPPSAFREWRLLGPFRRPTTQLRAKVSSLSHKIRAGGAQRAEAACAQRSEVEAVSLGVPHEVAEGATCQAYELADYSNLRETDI
pKi: −log10 of the molar value.
# binarize pKi: threshold 6 inclusive, high side yes (1), low side no (0)

## Task Exam item: decide whether the reported pKi for Cc1c(NC2=NCCN2)ccc2nccnc12 is at least 6.
## Result yes (1)

## Task Assess whether reported pKi for Ic1c(NC2=NCCN2)ccc2nccnc12 sits at 6 or higher.
## Result yes (1)

## Task Entry c1cnc2cc(NC3=NCCN3)ccc2n1 : is its pKi no less than 6?
## Result no (0)

## Task Tell me whether pKi is at least 6 here: Brc1c(NC2=N[C@@H]3CCCC[C@@H]3N2)ccc2nccnc12
## Result no (0)

## Task Could you tell me if the measured pKi of Clc1c(NC2=NCCN2)ccc2nccnc12 reaches 6 or more?
## Result no (0)

## Task State whether the measured pKi reaches 6, counting equality as reaching it, for Cc1cnc2c(Br)c(NC3=NCCN3)ccc2n1
## Result no (0)
